Biological target: UniProt P02769
Sequence (P02769 25-607): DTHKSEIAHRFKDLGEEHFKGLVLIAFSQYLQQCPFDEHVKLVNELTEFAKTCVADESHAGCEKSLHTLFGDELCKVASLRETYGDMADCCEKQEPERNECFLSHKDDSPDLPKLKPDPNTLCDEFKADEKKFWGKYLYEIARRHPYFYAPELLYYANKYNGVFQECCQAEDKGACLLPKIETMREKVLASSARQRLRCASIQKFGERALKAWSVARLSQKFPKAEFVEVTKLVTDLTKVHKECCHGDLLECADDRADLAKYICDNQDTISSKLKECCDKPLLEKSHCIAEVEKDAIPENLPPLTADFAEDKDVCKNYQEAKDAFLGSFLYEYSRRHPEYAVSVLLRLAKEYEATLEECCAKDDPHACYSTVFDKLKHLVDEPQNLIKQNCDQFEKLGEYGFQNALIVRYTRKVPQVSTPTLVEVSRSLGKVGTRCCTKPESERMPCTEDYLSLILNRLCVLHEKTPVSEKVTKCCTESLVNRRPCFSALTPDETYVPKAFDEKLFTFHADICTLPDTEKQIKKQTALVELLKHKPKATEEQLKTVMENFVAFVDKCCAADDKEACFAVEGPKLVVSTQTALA
Assay: Fluorescence enhancement of dyes upon binding to a protein (BSA)
Conditions: ratio of fluorescence (emission maxima) with BSA vs without; 1 μM dye, 150 μg BSA, 10 mM TRIS pH 7.5, 0.05% SDS
Procedure: Some of the dyes of the preceding examples were tested for changes in fluorescence upon binding to a protein (BSA). 1 μM of each dye was mixed with 150 μg of BSA in 10 mM TRIS (pH 7.5) with and without 0.05% SDS. Measurements were carried out on a standard fluorometer with and without BSA being present. Ratios were then calculated for the amount of fluorescence (emission maxima) in the presence of BSA compared to its absence.
Endpoint Name: Fluorescence Enhancement with SDS

>>> endpoint_result("CCCCCCN(CCCCCC)c1ccc(C=Cc2cc[n+](CCCP(=O)(OCC)OCC)c3ccccc23)cc1.[Br-]")
78
>>> endpoint_result("CCCCCCN(CCCCCC)c1ccc(C=Cc2sc3cc(S(=O)(=O)N4CCCCC4)ccc3[n+]2CCCCS(=O)(=O)[O-])cc1")
70
>>> endpoint_result("CCCCCCN(CCCCCC)c1ccc(C=Cc2sc3cc(S(=O)(=O)N(CCCCCC)CCCCCC)ccc3[n+]2C)cc1")
33
>>> endpoint_result("CCn1c2ccccc2c2cc(/C=C/c3sc4cc(S(=O)(=O)N5CCCCC5)ccc4[n+]3CCCCS(=O)(=O)[O-])ccc21")
10
>>> endpoint_result("C[n+]1c(/C=C/c2cc3c4c(c2)CCCN4CCC3)sc2cc(S(=O)(=O)N3CCCCC3)ccc21")
140
>>> endpoint_result("CCCCN(CCCC)c1ccc(C=Cc2cc[n+](CCCP(=O)(OCC)OCC)c3ccccc23)cc1.[Br-]")
92
